Molecular target: E. coli SPase (Escherichia coli, UniProt P00803)
Sequence (P00803 whole entry): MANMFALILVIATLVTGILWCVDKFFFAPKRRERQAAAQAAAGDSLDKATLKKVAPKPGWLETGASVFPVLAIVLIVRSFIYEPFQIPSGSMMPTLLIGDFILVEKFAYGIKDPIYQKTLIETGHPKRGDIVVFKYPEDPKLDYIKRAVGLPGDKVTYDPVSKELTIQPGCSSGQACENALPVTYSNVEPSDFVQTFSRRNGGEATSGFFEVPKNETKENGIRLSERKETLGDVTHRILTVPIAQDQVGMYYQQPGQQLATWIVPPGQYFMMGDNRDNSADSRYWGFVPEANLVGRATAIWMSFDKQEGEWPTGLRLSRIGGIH
Test: Biochemical SPase activity assay (fluorogenic peptide substrate), E. coli enzyme
Square brackets hold non-standard residues; d marks the D form. Peptide text beside a SMILES is read from it. * marks the point of attachment. X1 = C[C@H](N*)B1OC2C[C@@H]3C[C@@H](C3(C)C)[C@]2(C)O1; 4Amb = NCc1ccc(C(=O)O)cc1; Dab = NCC[C@H](N)C(=O)O; X14 = CCCCc1ccc(*)cc1
# maps each entry to its IC50
property-measured: IC50 (nM)

compound	system	property-measured	output-unit	assay-result
CCCCc1ccc(NCc2ccc(C(=O)N[C@@H](CCN)C(=O)N[C@H](C(=O)N[C@@H](C)C(=O)N[C@@H](CCCCN)C(=O)N[C@@H](C)B3OC4C[C@@H]5C[C@@H](C5(C)C)[C@]4(C)O3)[C@@H](C)O)cc2)cc1 (some centres unmarked) [Compound 250] ({X14-4Amb}-[Dab]TAK-X1)	E. coli SPase (Escherichia coli, UniProt P00803)	IC50	nM	8.4
CCCCc1ccc(-c2ccc(CNCCC[C@H](N)C(=O)N[C@H](C(=O)N[C@@H](C)C(=O)N[C@@H](CCCCN)C(=O)N[C@@H](C)B3OC4C[C@@H]5C[C@@H](C5(C)C)[C@]4(C)O3)[C@@H](C)O)cc2)cc1 (some centres unmarked)	E. coli SPase (Escherichia coli, UniProt P00803)	IC50	nM	1700
